Source of measurements: ChEMBL document CHEMBL4024771

# measurementProtocol: Passive permeability in MDCK cells at 2 uM after 90 mins by LC-MS/MS analysis
# Assay type: ADME, cell-based, Canis lupus familiaris
# testContext: dog, mdck, […], 2 µM
Reported permeability values are given for each entry in this list.
Please give a number only; it is taken to be in ×10⁻⁶ cm/s.

# molecule, parameter, outputUnit, measuredNumber
records = [
    ("CCC(CO)c1cc(Cl)c2c(c1Cl)C(=O)N(Cc1c(C)cc(C)[nH]c1=O)CC2 (stereo in doubt; (-)-5b)", "permeability", "×10⁻⁶ cm/s", 10.9),
    ("Cc1cc(C)c(CN2CCc3c(Cl)cc(C(CO)C4CCOCC4)c(Cl)c3C2=O)c(=O)[nH]1 (stereo in doubt; (+)-8b)", "permeability", "×10⁻⁶ cm/s", 2.9),
    ("COC(c1cc(Cl)c2c(c1Cl)C(=O)N(Cc1c(C)cc(C)[nH]c1=O)CC2)C1CCOC1 (single isomer, unassigned; (+))", "permeability", "×10⁻⁶ cm/s", 18.7),
    ("COc1cc(C)[nH]c(=O)c1CN1CCc2c(Cl)cc(C(OC)C3CCOC3)c(Cl)c2C1=O (single isomer, unassigned; form 2)", "permeability", "×10⁻⁶ cm/s", 8.2),
    ("COC(c1cc(Cl)c2c(c1Cl)C(=O)N(Cc1c(C)cc(C)[nH]c1=O)CC2)C1CCN(C(=O)CO)CC1 (single isomer, unassigned; (-))", "permeability", "×10⁻⁶ cm/s", 7.1),
]

Let's switch to this molecule now.
Would you kindly share the measured permeability for COC(c1cc(Cl)c2c(c1Cl)C(=O)N(Cc1c(C)cc(C)[nH]c1=O)CC2)C1CCN(C2COC2)CC1 (single isomer, unassigned; (-)) ?
7.9

###

Recorded Ki, one value per entry.
# testedSystem: Histone-lysine N-methyltransferase EZH2 (Homo sapiens, UniProt Q15910, Y641N)
# Sequence (Q15910 whole entry Y641N): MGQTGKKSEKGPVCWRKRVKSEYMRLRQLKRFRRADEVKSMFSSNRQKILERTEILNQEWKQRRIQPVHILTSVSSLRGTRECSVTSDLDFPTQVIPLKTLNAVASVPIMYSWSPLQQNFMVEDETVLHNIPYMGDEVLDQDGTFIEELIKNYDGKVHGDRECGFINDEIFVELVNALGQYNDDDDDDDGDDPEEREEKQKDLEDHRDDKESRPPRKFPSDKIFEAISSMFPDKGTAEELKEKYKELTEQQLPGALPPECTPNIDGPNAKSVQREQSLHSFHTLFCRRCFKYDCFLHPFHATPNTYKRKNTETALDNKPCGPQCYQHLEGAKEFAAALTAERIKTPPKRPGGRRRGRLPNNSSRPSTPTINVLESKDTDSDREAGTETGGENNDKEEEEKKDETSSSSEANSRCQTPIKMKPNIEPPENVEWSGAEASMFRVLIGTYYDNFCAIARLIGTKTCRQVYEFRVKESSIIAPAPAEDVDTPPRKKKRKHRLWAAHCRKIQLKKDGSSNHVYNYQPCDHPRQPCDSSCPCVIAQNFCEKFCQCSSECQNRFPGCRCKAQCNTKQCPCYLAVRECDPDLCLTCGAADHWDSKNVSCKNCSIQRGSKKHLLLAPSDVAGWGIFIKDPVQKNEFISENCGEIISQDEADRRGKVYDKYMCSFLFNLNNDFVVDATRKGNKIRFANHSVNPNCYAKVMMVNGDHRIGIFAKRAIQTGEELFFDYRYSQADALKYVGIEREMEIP
# measurementProtocol: Inhibition of EZH2 Y641N mutant (unknown origin) using oligonucleosomes as substrate after 60 mins in presence of [3H]SAM by scintillation counting analysis
# output: bare number, implied unit nM

Below, 5 compounds whose answers are already recorded.
# compound, parameter, measuredNumber
measured = [
    ("COC(c1cc(Cl)c2c(c1Cl)C(=O)N(Cc1c(C)cc(C)[nH]c1=O)CC2)C1CCOC1 (single isomer, unassigned; (-))", "Ki", 130),
    ("COc1cc(C)[nH]c(=O)c1CN1CCc2c(Cl)cc(-c3c(C)noc3C)c(Cl)c2C1=O", "Ki", 0.15),
    ("CCOC(c1cc(Cl)c2c(c1Cl)C(=O)N(Cc1c(C)cc(C)[nH]c1=O)CC2)C1CS(=O)(=O)C1 (single isomer, unassigned)", "Ki", 460),
    ("COc1cc(C)[nH]c(=O)c1CN1CCc2c(Cl)cc(C(OC)C3CCOC3)c(Cl)c2C1=O (stereo in doubt; 22b)", "Ki", 0.19),
    ("Cc1cc(C)c(CN2CCc3c(Cl)cc([C@@H](CO)[C@@H]4CCCO4)c(Cl)c3C2=O)c(=O)[nH]1", "Ki", 135),
]

Which measured Ki value corresponds to COC(c1cc(Cl)c2c(c1Cl)C(=O)N(Cc1c(C)cc(C)[nH]c1=O)CC2)C1CCN(C(=O)CO)CC1 (stereo in doubt; (+)-16a) ?
0.25

###

# measurementProtocol: Passive permeability in MDCK cells at 2 uM after 90 mins by LC-MS/MS analysis
# Assay type: ADME, cell-based, Canis lupus familiaris
# testContext: dog, mdck, […], 2 µM
Entries annotated with measured permeability
Numeric answer only, unit ×10⁻⁶ cm/s assumed.

# compound, permeability (×10⁻⁶ cm/s)
data = [
    ("COC(c1cc(Cl)c2c(c1Cl)C(=O)N(Cc1c(C)cc(C)[nH]c1=O)CC2)C1CCS(=O)(=O)CC1 (single isomer, unassigned; (-))", 5.7),
]

Quick check: permeability of COc1cc(C)[nH]c(=O)c1CN1CCc2c(Cl)cc(C(OC)C3CCOC3)c(Cl)c2C1=O (stereo in doubt; 22b) ?
7.2

And what about the compound COC(c1cc(Cl)c2c(c1Cl)C(=O)N(Cc1c(C)cc(C)[nH]c1=O)CC2)C1CCN(C)CC1 (single isomer, unassigned; (-)) ?
2.3

Another compound to check: COC(c1cc(Cl)c2c(c1Cl)C(=O)N(Cc1c(C)cc(C)[nH]c1=O)CC2)C1CCN(C(C)=O)CC1 (single isomer, unassigned; (-))
8.1
